- ASSAY INFO: yeast display, Sf9 membrane polyspecificity reagent, FACS + sequencing; frameworks hold sequencing errors
MEASURED QUANTITY: polyreactivity (PSR sort gate)

BIOPOLYMER SEQUENCE	RESULT
QVQLVESGGGLVHAGGSLRLSCAASGSTYRANSMGWYRQAPGKERELVAAITRRGGSTYYADSVKGRFTISRDNAKNTVYLQMNSLKPEDTAVYYCAAASRYGEGDYWGQGTQVTVSS	high polyreactivity
QVQLVESGGGLVQAGRSLRLSCAASGGLFQKYPMGWYRHAPGKERELVAAISGSGGRTYYADSVKGRFTISRDNAKNTVYLQMNTLKPEDTEVYYCAATLNRYGYDYWGQGTQVTVST	high polyreactivity
QVQLVESGGGLVQAGGSLRLTCAASGRTYRKNAMGWYRQAPGKETELVAAITGSSGTTYYADSVKARFTISRDNAKISVYFQMNSLKPEDTAVYYCATTVCDPGRRYYYWGLGTQVTVSS	high polyreactivity
QVQLVESAGGLVQAGGILRLSCAASGRTFEGNPMGWYRQAPGKERELVAAITSGGRTNYADSVKGRLTISRDNAKNTVYLQMNSLKPEDTAVYYCAATSTYRSYREYDYWGQGTQVTVSS	low polyreactivity
QVQLVESGGGFVQAGGSLRLSCAASGRIFHHNAMGGYRQAPGKVRELDATITKSGGSTYADSVKGRFTISRANAKNTVYLQMNSRKPEETAVYSCAATSVGAYGVRKYWYDYWAQGTQVTVSS	low polyreactivity

Return value of polyreactivity (PSR sort gate) for input `QVQLVESGGGLVQAGGSLRLSCADSGFTFGVYVMGWYRQAPAKERELVAAISRSGGSTYYADSVKGRFTISRDKAKNTVYLQMNCLKPEETAVYYCNADRLVSYRAGEYDYWGQGTQVTVSS` , no commentary.
high polyreactivity

Write down polyreactivity (PSR sort gate) measured for item `QVQLVESGGGLVQAGGSLRLSCAASGIIFHFNDMGWYRQAPGKERELVAAITSGGSTNYADSVKGRFTISRDNAKNTVYLQMNSLKPEDTAVYYCAARRGLRLFAYRHGYWGQGTQVTVSS`
low polyreactivity

* * *

- ASSAY INFO: yeast display, Sf9 membrane polyspecificity reagent, FACS + sequencing; frameworks hold sequencing errors
MEASURED QUANTITY: polyreactivity (PSR sort gate)

BIOPOLYMER SEQUENCE	polyreactivity (PSR sort gate)
QVQLVESGGGLVQAGGSLRLSCAASGRTLGYYAMGWYRQAPGKERELVAAITSRTGTTYYADSVKGRFTISRDNAKNTVFLQMNSLKPEDTAVYYCNAAYYSTVLGWYLEYDYWGQGTQVTVSS	high polyreactivity
QVQHVESGGGLVQAGGSLRLSCAASGTIFTVYAMGWYRQAPGKERELVAAITRNGGRTYYADSVKGRFTISRDNAKNTVYLQMNSLKPEDTAVYFCAAPGLYSRLDYWGQGTQVTVSS	high polyreactivity
QVQLVESGGGLVQAGGSLRLSCAASGSTFVVYAMGWYRQAPGKERELLAAIRANVGGTYYADSVKGRFTISRDNAKNTVYLQMNSLKPEDTAVYYCAAGGYYYNPSFTYGILDYEYCGQGTQVTVSS	low polyreactivity
QVQLVESGGGLVQAGGSLRLSCAASGGIFRSYAMGWYRQAPGKERELVAAINYSGGSTYYADSVKGRFTISRDNAKNSVYLQMNSLKPEDTAVYYCASDGYIRQYVTYYYWGQGTQVTVSS	low polyreactivity
QVQIVESGGGLVQAGGSLRLSCTASGRIFYRYAMGWYRQAPGKERELVAAIRYSGGRTYYADSVKGRFTISRDNAKNTVYLQMNSLKQEDTAVYYCAADGQWYYAPFRGGVYENDYWGQGTQVTVSS	low polyreactivity
QVKLVESGGGLVQAGGSLRLSCAASGRTFINYAMGWYRQAPGKERELVAAITTGGRTNYADSVKGRFTISRDNSKNTVYLQMNSLKPEDTEVYYCAADRYDWGRNTLNYWGQGTQVTVSS	low polyreactivity
QVQLVESGGGLVQAGGSLRLSCAASGSTIVTKAMGWYRQAPGKERELVAAISFSVGRTYYADSVKGRFTISRDNAKNTVYLQMNSLKPEDTAVYYCAAGLRVTPALHSYGYWGQGTQVTVSS	high polyreactivity
QVQLVESGGGLVQAGASLRLSCAASGRTFWFYAMGWYRQAPGQERELVAAISSGGSTNYADSVKGLFTISRDNAKNTVYLQMNSLKPEDTAVYYCAKVGNIPYGTRYYYNRYDYWGQGTQVTVSS	low polyreactivity
QVQLVESGGGLVQAGGSLRLSCAASGRIFQGYAMGWYRQAPGKEREFVAVISTSGGRTSYADSVKGRFTISRDNAKNTVYLQMNSLKPEDTAVYYCNALYGRYGWSKNYYWGQGTQVTVSS	high polyreactivity

Answer with reported polyreactivity (PSR sort gate) of `QVQLVESVGGLVQAGGSLRLSCAASGSTFIIYAMGWYRQAPGKERELVATISTRGTSTYYADSVKGRFTISRDNEKNTVYLQMKSLKPEDTAVYYCNARRRGYGNRYTFDYWGQGTQVTVSS`
high polyreactivity

* * *

- ASSAY INFO: yeast display, Sf9 membrane polyspecificity reagent, FACS + sequencing; frameworks hold sequencing errors
MEASURED QUANTITY: polyreactivity (PSR sort gate)

Here is how some sequences turned out for polyreactivity (PSR sort gate).
BIOPOLYMER SEQUENCE	polyreactivity (PSR sort gate)
QVQLVESGGGLVQAAGSLRLSCAASVITFVKNAMGWYRQAPGKERELVARIRIGGSTSYADSVKGRFTISRDYAKNTFYLQLNSLKPEDTAVYYCARYAGRLSYRYEYWGQGTQVTVSS	high polyreactivity
QVQLVESGGGLVQAGGSLRLSCAASGFIFLGNAMGWYRQAPGKERELVASISRGGSTNYADSVKGRFTISRDNAKNTVYLQMTSLKPEDTAVYYCAADLSDKFGYWGQGTQVTVSS	low polyreactivity
QVQLVESGGGLVQAGGSLRLSCAASGLIFYRYTMGWYRQAPGKERELVAAISWRGTRTYYADSVKGRFTISRDNAKNTVYLQMNSLKPEDTAVYYCTAGYVRRYSPSSSWRYDYWGQGTQVTVSS	high polyreactivity
QVQLVESGGGLVQAGGSLRLSCAASGFIFFTYAMGWYRQAPGKERELVADISSRGGSTYYADSVKGRFTISRDNAKNTVYLQMNSLKPEDTAVYYCARTRFWLRYRLFDYWGQGTQVTVSS	low polyreactivity

Using the record for `QVQLVESGGGLVQAGASLRLSCAASGSTFYVNAMGWYRQAPGKERELVASISSSSGSTYYADSVKRRFTISRDNAKNTVYFQMNSLKPEDTAVYYCAAEVGIFIWFDYWGQGTQVTVSS` , state its measured polyreactivity (PSR sort gate).
low polyreactivity

Using the record for `QVQLEESGGGLVQAGGSLRLSCAASGRIFGYYDMGWYRQAPGKERELVARITRGGGTTYYADSVKGRFTISRDNAKNTVYLQMNSLKPEDTAVYYCAAVRSWWHTHYNYDYWGQGTQVTVSS` , state its measured polyreactivity (PSR sort gate).
high polyreactivity

Look up and state reported polyreactivity (PSR sort gate) for `QVQLVESGGGLVQAGGSLRLSCAASGLILHKYAMGWYRQAPGKERELVASINSGANTNYADSVKGRFTISRDNAKNTVYLQMNSLKPEDTAVYYCNASPFTVRYYKYEYWGQGTQVTVSS`
low polyreactivity

Report polyreactivity (PSR sort gate), nothing else, for this sequence: `QVQLVESGGGLVQAGGSLRLSCAASGSIFAYNAMGWYRQAPGKVREFVAVITRSDDSTYADSVKGRFTISRDNAKNTVYLQMNSLKPEDTAVYYCAAQPFDIDGGYRVDYWRQGTQVTVSS`
low polyreactivity

Hello, please tell me recorded polyreactivity (PSR sort gate) for this one: `QVQLVESGGGLVQAGGSLRLSCAASGSTFSRYAMGWYRQAPGKERELVAAISSNGGRTYYADSVKGRFTISRDNAKNTVYLQMNSLKPEDTAVYYCAAVNYLTMDYWGQGTQVTVSS`
high polyreactivity

Write down polyreactivity (PSR sort gate) measured for item `QVQLVESGGGLVQAGGSLRLSCAASGSISVRNVMGWYRQAPRKERELVATIRRTGGSTSYADSVKGRFTISRDNAKNTVYLQMNSLKPEDTAVYYCAAVGYTTYRRYDYWGQGTQVTVSS`
low polyreactivity

Supply polyreactivity (PSR sort gate) value. Item: `QVQLVESGGGLVQAGGSLRLSCAVSGRTFYYYAMGWYRQAPGKERELVAAISSSGGSTYYADSVKGRFTISRDNAMNTVYLQLNRLKPEDTAVYYCNAYTTRSYGFDYWGQGTQVTVSS`
high polyreactivity

Identify polyreactivity (PSR sort gate) associated with the sequence `QVHLVESGGGLVQAGGSLRLSCAASGYIFRWYAMGWYRQAPGKEREFVASISKRGGSTYYADSVKGRFTISRDNAKNTVYLQMNSLKPEDTAVYYCARTPSPLLYSYDYWGQGTQVTVSS`
high polyreactivity
